Target: Tyrosinase (Agaricus bisporus) (UniProt O42713)
Sequence (whole entry): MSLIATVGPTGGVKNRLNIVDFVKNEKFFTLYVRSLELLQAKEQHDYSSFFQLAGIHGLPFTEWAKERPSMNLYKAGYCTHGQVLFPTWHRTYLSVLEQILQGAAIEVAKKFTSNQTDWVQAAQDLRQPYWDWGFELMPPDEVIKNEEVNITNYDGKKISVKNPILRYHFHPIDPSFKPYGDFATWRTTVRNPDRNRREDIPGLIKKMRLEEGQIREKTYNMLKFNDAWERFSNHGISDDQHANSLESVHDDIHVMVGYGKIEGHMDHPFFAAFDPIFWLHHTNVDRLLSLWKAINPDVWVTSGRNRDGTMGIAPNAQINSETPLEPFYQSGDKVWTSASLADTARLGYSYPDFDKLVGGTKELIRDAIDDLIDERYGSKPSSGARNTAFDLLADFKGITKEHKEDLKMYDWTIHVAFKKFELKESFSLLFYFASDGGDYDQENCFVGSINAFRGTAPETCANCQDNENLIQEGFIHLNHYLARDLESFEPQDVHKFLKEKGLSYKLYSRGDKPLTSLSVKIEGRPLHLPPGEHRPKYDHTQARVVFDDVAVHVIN
Assay: Induction of mushroom tyrosinase activity using L-DOPA as substrate at 200 uM after 30 mins
parameter measured: Activity

* O=c1c(O[C@@H]2O[C@H](CO)[C@@H](O[C@@H]3O[C@H](CO)[C@@H](O)[C@H](O)[C@H]3O)[C@H](O)[C@H]2O)c(-c2ccc(O)c(O)c2)oc2cc(O)cc(O)c12 | 112%
* O=c1c(O[C@@H]2O[C@H](CO)[C@@H](O)[C@H](O)[C@H]2O)c(-c2ccc(O)c(O)c2)oc2cc(O)cc(O)c12 [ISOQUERCETIN] | 116%
* O=c1c(O[C@@H]2O[C@H](CO)[C@@H](O[C@@H]3O[C@H](CO)[C@@H](O)[C@H](O)[C@H]3O)[C@H](O)[C@H]2O)c(-c2ccc(O)c(O)c2)oc2cc(O[C@@H]3O[C@H](CO)[C@@H](O[C@@H]4O[C@H](CO)[C@@H](O)[C@H](O)[C@H]4O)[C@H](O)[C@H]3O)cc(O)c12 | 103%
* O=c1c(O[C@@H]2O[C@H](CO)[C@@H](O)[C@H](O)[C@H]2O)c(-c2ccc(O)c(O)c2)oc2cc(O[C@@H]3O[C@H](CO)[C@@H](O)[C@H](O)[C@H]3O)cc(O)c12 | 106%
* O=c1c(O[C@@H]2O[C@H](CO)[C@@H](O)[C@H](O)[C@H]2O)c(-c2ccc(O)c(O)c2)oc2cc(O[C@@H]3O[C@H](CO)[C@@H](O[C@@H]4O[C@H](CO)[C@@H](O)[C@H](O)[C@H]4O)[C@H](O)[C@H]3O)cc(O)c12 | 110%
* O=c1c(O[C@@H]2O[C@H](CO)[C@@H](O)[C@H](O)[C@H]2O)c(-c2ccc(O[C@@H]3O[C@H](CO)[C@@H](O)[C@H](O)[C@H]3O)c(O)c2)oc2cc(O)cc(O)c12 | 99.3%

###

Entries and their measured Activity follow.
biological target: Tyrosinase (Agaricus bisporus) (UniProt O42713); assay: Induction of mushroom tyrosinase activity using L-DOPA as substrate at 100 uM after 30 mins
parameter measured: Activity (%)

* O=c1c(O[C@@H]2O[C@H](CO)[C@@H](O[C@@H]3O[C@H](CO)[C@@H](O)[C@H](O)[C@H]3O)[C@H](O)[C@H]2O)c(-c2ccc(O[C@@H]3O[C@H](CO)[C@@H](O[C@@H]4O[C@H](CO)[C@@H](O)[C@H](O)[C@H]4O)[C@H](O)[C@H]3O)c(O)c2)oc2cc(O)cc(O)c12 | 103
* O=c1c(O[C@@H]2O[C@H](CO)[C@@H](O)[C@H](O)[C@H]2O)c(-c2ccc(O)c(O)c2)oc2cc(O[C@@H]3O[C@H](CO)[C@@H](O)[C@H](O)[C@H]3O)cc(O)c12 | 103
* O=c1c(O[C@@H]2O[C@H](CO)[C@@H](O)[C@H](O)[C@H]2O)c(-c2ccc(O)c(O)c2)oc2cc(O[C@@H]3O[C@H](CO)[C@@H](O[C@@H]4O[C@H](CO)[C@@H](O)[C@H](O)[C@H]4O)[C@H](O)[C@H]3O)cc(O)c12 | 105
* O=c1c(O[C@@H]2O[C@H](CO)[C@@H](O[C@@H]3O[C@H](CO)[C@@H](O)[C@H](O)[C@H]3O)[C@H](O)[C@H]2O)c(-c2ccc(O)c(O)c2)oc2cc(O)cc(O)c12 | 107
* O=c1c(O[C@@H]2O[C@H](CO)[C@@H](O)[C@H](O)[C@H]2O)c(-c2ccc(O)c(O)c2)oc2cc(O)cc(O)c12 | 110

###

Molecular target: Tyrosinase (Agaricus bisporus) (UniProt O42713)
Sequence (whole entry): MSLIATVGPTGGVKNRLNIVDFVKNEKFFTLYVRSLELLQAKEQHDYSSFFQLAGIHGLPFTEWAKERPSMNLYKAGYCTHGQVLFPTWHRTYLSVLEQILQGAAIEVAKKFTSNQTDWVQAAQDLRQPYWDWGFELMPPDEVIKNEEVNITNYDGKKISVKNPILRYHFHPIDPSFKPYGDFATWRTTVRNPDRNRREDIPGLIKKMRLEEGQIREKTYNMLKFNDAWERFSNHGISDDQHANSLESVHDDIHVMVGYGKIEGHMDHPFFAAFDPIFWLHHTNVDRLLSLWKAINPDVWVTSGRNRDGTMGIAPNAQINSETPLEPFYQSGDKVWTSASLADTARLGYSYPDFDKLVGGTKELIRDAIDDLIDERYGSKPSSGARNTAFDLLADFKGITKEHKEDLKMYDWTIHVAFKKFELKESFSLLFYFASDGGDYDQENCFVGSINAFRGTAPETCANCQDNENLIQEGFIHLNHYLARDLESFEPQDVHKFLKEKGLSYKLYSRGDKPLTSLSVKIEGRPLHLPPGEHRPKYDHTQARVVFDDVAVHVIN
Experiment: Induction of mushroom tyrosinase activity using L-tyrosine as substrate at 50 uM after 30 mins
parameter measured: Activity

• O=c1c(O[C@@H]2O[C@H](CO)[C@@H](O)[C@H](O)[C@H]2O)c(-c2ccc(O[C@@H]3O[C@H](CO)[C@@H](O)[C@H](O)[C@H]3O)c(O)c2)oc2cc(O)cc(O)c12 = 101%
• O=c1c(O[C@@H]2O[C@H](CO)[C@@H](O[C@@H]3O[C@H](CO)[C@@H](O)[C@H](O)[C@H]3O)[C@H](O)[C@H]2O)c(-c2ccc(O[C@@H]3O[C@H](CO)[C@@H](O[C@@H]4O[C@H](CO)[C@@H](O)[C@H](O)[C@H]4O)[C@H](O)[C@H]3O)c(O)c2)oc2cc(O)cc(O)c12 = 100%

###

molecular target: Tyrosinase (Agaricus bisporus) (UniProt O42713); assay: Induction of mushroom tyrosinase activity using L-tyrosine as substrate at 100 uM after 30 mins
Entries and their measured Activity follow.
parameter measured: Activity (%)

• O=c1c(O[C@@H]2O[C@H](CO)[C@@H](O)[C@H](O)[C@H]2O)c(-c2ccc(O[C@@H]3O[C@H](CO)[C@@H](O[C@@H]4O[C@H](CO)[C@@H](O)[C@H](O)[C@H]4O)[C@H](O)[C@H]3O)c(O)c2)oc2cc(O)cc(O)c12 = 85.2
• O=c1c(O[C@@H]2O[C@H](CO)[C@@H](O[C@@H]3O[C@H](CO)[C@@H](O)[C@H](O)[C@H]3O)[C@H](O)[C@H]2O)c(-c2ccc(O[C@@H]3O[C@H](CO)[C@@H](O)[C@H](O)[C@H]3O)c(O)c2)oc2cc(O)cc(O)c12 = 95.9
• O=c1c(O[C@@H]2O[C@H](CO)[C@@H](O[C@@H]3O[C@H](CO)[C@@H](O)[C@H](O)[C@H]3O)[C@H](O)[C@H]2O)c(-c2ccc(O)c(O)c2)oc2cc(O)cc(O)c12 = 95
• O=c1c(O[C@@H]2O[C@H](CO)[C@@H](O)[C@H](O)[C@H]2O)c(-c2ccc(O[C@@H]3O[C@H](CO)[C@@H](O)[C@H](O)[C@H]3O)c(O)c2)oc2cc(O)cc(O)c12 = 98.8
• O=c1c(O[C@@H]2O[C@H](CO)[C@@H](O[C@@H]3O[C@H](CO)[C@@H](O)[C@H](O)[C@H]3O)[C@H](O)[C@H]2O)c(-c2ccc(O[C@@H]3O[C@H](CO)[C@@H](O[C@@H]4O[C@H](CO)[C@@H](O)[C@H](O)[C@H]4O)[C@H](O)[C@H]3O)c(O)c2)oc2cc(O)cc(O)c12 = 95
• O=c1c(O[C@@H]2O[C@H](CO)[C@@H](O)[C@H](O)[C@H]2O)c(-c2ccc(O)c(O)c2)oc2cc(O[C@@H]3O[C@H](CO)[C@@H](O)[C@H](O)[C@H]3O)cc(O)c12 = 85.5
• O=c1c(O[C@@H]2O[C@H](CO)[C@@H](O[C@@H]3O[C@H](CO)[C@@H](O)[C@H](O)[C@H]3O)[C@H](O)[C@H]2O)c(-c2ccc(O)c(O)c2)oc2cc(O[C@@H]3O[C@H](CO)[C@@H](O[C@@H]4O[C@H](CO)[C@@H](O)[C@H](O)[C@H]4O)[C@H](O)[C@H]3O)cc(O)c12 = 104
• O=c1c(O[C@@H]2O[C@H](CO)[C@@H](O[C@@H]3O[C@H](CO)[C@@H](O)[C@H](O)[C@H]3O)[C@H](O)[C@H]2O)c(-c2ccc(O)c(O)c2)oc2cc(O[C@@H]3O[C@H](CO)[C@@H](O)[C@H](O)[C@H]3O)cc(O)c12 = 102
• O=c1c(O[C@@H]2O[C@H](CO)[C@@H](O)[C@H](O)[C@H]2O)c(-c2ccc(O)c(O)c2)oc2cc(O)cc(O)c12 = 96.2
• O=c1c(O[C@@H]2O[C@H](CO)[C@@H](O)[C@H](O)[C@H]2O)c(-c2ccc(O)c(O)c2)oc2cc(O[C@@H]3O[C@H](CO)[C@@H](O[C@@H]4O[C@H](CO)[C@@H](O)[C@H](O)[C@H]4O)[C@H](O)[C@H]3O)cc(O)c12 = 89
